Tested on: Gli-responsive luciferase reporter cells, SUFU pathway antagonism
Experiment: Gli-SUFU pathway antagonists, dose response, cell-based, luciferase luminescence, uHTS hits (AID 602464)
Activity calls are given as the source filed them. No stated cut-off is given here; in the data, active means IC50 below about 20 µM; inactive means the rest.
Labels: true (1) = active, false (0) = inactive

| Compound | Class |
| --- | --- |
| Cc1nc2sccn2c1-c1csc(NCc2ccccc2)n1 | true (1) |
| COc1ccc(NC(=S)N2CCC(Cc3ccccc3)CC2)cc1 | true (1) |
| O=C(c1ccc(Cl)cc1)N1CCN(c2ccnc3cc(Cl)ccc23)CC1 | true (1) |
| CCn1c(=O)cc(SCC(=O)N2CCN(C3CCCCC3)CC2)c2ccccc21 | true (1) |
| CC1CCN(Cc2c(C(=O)N/N=C/c3ccccc3O)nnn2-c2nonc2N)CC1 | true (1) |
| O=C(C[n+]1cc(-c2ccccc2)n2c1CCCCC2)c1ccc(Cl)cc1 | false (0) |
| c1ccc2c(c1)OCC(CNc1ncnc3sccc13)O2 (stereo not given) | true (1) |
| CN1/C(=C\C=N\NC(=O)c2ccc(O)cc2)C(C)(C)c2ccccc21 | true (1) |
| CCCc1nc(SCC(=O)Nc2nnc(CC)s2)c2c(=O)n(C)c(=O)n(C)c2n1 | true (1) |
| Cc1ccc(C)c(-c2csc(NC(=O)C3=COCCO3)n2)c1 | true (1) |
| O=C(NC1CCCC1)c1cc(COc2ccc3ncccc3c2)on1 | true (1) |
| CC1Sc2n(c3ccccc3[n+]2C)N=C1c1ccccc1 (stereo not given) | true (1) |
| COc1ccc(NS(=O)(=O)c2ccc(N3CCOCC3)c(N)c2)cc1 | true (1) |
| CCCCSc1nc2sc3c(c2c(=O)n1-c1ccc(C)cc1)CCN(C)C3 | true (1) |
| Brc1ccc(-[n+]2c(-c3ccccc3)cc(-c3ccccc3)cc2-c2ccccc2)cc1 | true (1) |
| O=C(c1cc2nc(-c3ccc(F)cc3)cc(C(F)(F)F)n2n1)N1CCCCC1c1cccnc1 (stereo not given) | false (0) |
| CC[N+]1=C(C)C(C)(C)c2cc(C)ccc21 | true (1) |
| O=C(Nc1cccc(C(F)(F)F)c1)C1CCN(S(=O)(=O)c2ccc(N3CCCC3=O)cc2)CC1 | true (1) |
| CCCCn1c(SCc2c(C)noc2C)nc2cc(S(N)(=O)=O)ccc21 | true (1) |
| Clc1ccc(-c2cn(-c3ccc(Cl)cc3)c3[n+]2CCCCC3)cc1 | true (1) |
| CCN(CC)S(=O)(=O)c1ccc(S(=O)(=O)N2CCCC(C(=O)NC3CC3)C2)cc1 (stereo not given) | true (1) |
| Cc1ccc(S(=O)(=O)N2CCN(C(=O)c3ccc(S(=O)(=O)N4CCCC4)cc3)CC2)cc1 | false (0) |
| CCCCCCC[N+](CC)(CC)CCCCc1ccc(Cl)cc1 | true (1) |
| CC(C)C(=O)NC(=S)/C=C1/N(C)c2ccccc2C1(C)C | true (1) |
| Cc1cc(C)nc(SCC(=O)Nc2ccc(N3CCOCC3)c(Cl)c2)n1 | true (1) |
| COc1ccc(CN2CCC(C(=O)Nc3ccc(Oc4cccnc4)cc3)CC2)c(C)c1C | true (1) |
| Cc1ccsc1CNc1ncnc2ccc(-c3c(C)noc3C)cc12 | true (1) |
| Cc1ccc(NCC(=O)Nc2cccc(S(=O)(=O)N(C)C)c2)cc1S(=O)(=O)N1CCCCCC1 | true (1) |
| CC[N+](C)(CC)CCC(c1ccccc1)C1CCCCC1 (stereo not given) | true (1) |
| C[n+]1c2n(c3ccccc31)N=C(c1ccc(-c3ccccc3)cc1)CS2 | true (1) |
